Where do the numbers come from? From ChEMBL document CHEMBL1148559.

- protocol: Selectivity for SERT over DAT
- Assay type: protein assay
- assay setup: Rattus norvegicus
outcome measure: Ratio Ki

Look over these answered cases.
compound | Ratio Ki
COC(=O)C1C2CCC(CC1c1ccc(-c3ccco3)cc1)N2 (stereo not drawn) | 25
COC(=O)C1C(c2ccc(-c3ccccn3)cc2)CC2CCC1N2C (stereo not drawn) | 0.27

# next compound below
Asked: Looking for the measured Ratio Ki of COC(=O)C1C(c2ccc(-c3cncnc3)cc2)CC2CCC1N2C (stereo not drawn) , can you help?
Given back: 110

---

Parameter 'readout' = Ki; parameter 'system' = Norepinephrine transporter (Rattus norvegicus, UniProt Q9WTR4).
Sequence (Q9WTR4 whole entry): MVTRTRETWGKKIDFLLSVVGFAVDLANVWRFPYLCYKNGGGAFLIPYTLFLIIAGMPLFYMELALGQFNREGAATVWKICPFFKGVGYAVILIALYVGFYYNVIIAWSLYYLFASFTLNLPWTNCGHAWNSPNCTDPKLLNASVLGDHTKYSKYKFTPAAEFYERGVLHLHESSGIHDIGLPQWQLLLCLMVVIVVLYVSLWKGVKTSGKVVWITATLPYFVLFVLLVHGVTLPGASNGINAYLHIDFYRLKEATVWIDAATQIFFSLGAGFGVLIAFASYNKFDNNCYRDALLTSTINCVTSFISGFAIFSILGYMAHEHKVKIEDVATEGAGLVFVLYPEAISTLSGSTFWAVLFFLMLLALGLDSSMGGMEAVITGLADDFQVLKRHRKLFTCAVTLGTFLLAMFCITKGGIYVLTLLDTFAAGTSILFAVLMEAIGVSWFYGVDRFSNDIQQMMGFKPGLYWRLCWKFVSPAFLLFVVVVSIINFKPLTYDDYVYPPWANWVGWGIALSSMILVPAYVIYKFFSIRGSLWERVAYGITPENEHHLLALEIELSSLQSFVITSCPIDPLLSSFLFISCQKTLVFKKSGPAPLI

compound | measured on | Ki
COC(=O)C1C(c2ccc(-c3nccs3)cc2)CC2CCC1N2C (stereo not drawn) | Norepinephrine transporter (Rattus norvegicus, UniProt Q9WTR4) | > 10 µM
COC(=O)C1C(c2ccc(-c3cncnc3)cc2)CC2CCC1N2C (stereo not drawn) | Norepinephrine transporter (Rattus norvegicus, UniProt Q9WTR4) | > 10 µM

Asked: Looking for the measured Ki of COC(=O)C1C(c2ccc(-c3cnc4ccccc4c3)cc2)CC2CCC1N2C (stereo not drawn) , can you help?
Given back: > 30 µM

---

- protocol: Selectivity for SERT over DAT
- Assay type: protein assay
- assay setup: Rattus norvegicus
Ratio Ki listing for selected compounds.
Returns: the value as a bare number; no unit string appended.

Asked: Looking for the measured Ratio Ki of COC(=O)C1C2CCC(CC1c1ccc(-c3cncc(OC)c3)cc1)N2 (stereo not given) , can you help?
Given back: 212

Asked: Looking for the measured Ratio Ki of COC(=O)C1C(c2ccc(-c3cccc(F)c3)cc2)CC2CCC1N2C (stereo not given) , can you help?
Given back: 50

Asked: Looking for the measured Ratio Ki of COC(=O)C1C(c2ccc(-c3cc(F)cc(F)c3)cc2)CC2CCC1N2C (stereo not given) , can you help?
Given back: 77

Asked: Looking for the measured Ratio Ki of COC(=O)C1C(c2ccc(-c3cccnc3)cc2)CC2CCC1N2C (stereo not given) , can you help?
Given back: 7

Asked: Looking for the measured Ratio Ki of COC(=O)C1C(c2ccc(-c3cnccn3)cc2)CC2CCC1N2C (stereo not given) , can you help?
Given back: 10

---

- measured on: Norepinephrine transporter (Rattus norvegicus)
- protocol: Displacement of [3H]nisoxetine from NET in rat […]
- Type: tissue-based
outcome measure: Ki

Look over these answered cases.
compound | Ki
COC(=O)C1C(c2ccc(-c3ccccn3)cc2)CC2CCC1N2C (stereo not drawn) | > 10 µM
COC(=O)C1C(c2ccc(-c3cccc(N(C)C)c3)cc2)CC2CCC1N2C (stereo not drawn) | > 30 µM

Asked: Looking for the measured Ki of COC(=O)C1C(c2ccc(-c3ccncc3)cc2)CC2CCC1N2C (stereo not drawn) , can you help?
Given back: > 30 µM
